Value source: ChEMBL document CHEMBL5370585

system: Staphylococcus aureus; assay: Antibacterial activity against Staphylococcus aureus ATCC 29213 incubated for 16 to 18 hrs by CLSI based broth dilution method; format: functional; settings: time 16-18 hrs

Molecular string	MIC, µg/mL
Cc1cc2c3c(N)nc(N)nc3ccc2n1Cc1cccc2scnc12	1
Nc1nc(N)c2c(ccc3c2ccn3Cc2ccc(Br)c3ccccc23)n1	0.25
CCOC(=O)c1ccc(Cn2ccc3c4c(N)nc(N)nc4ccc32)c2ccccc12	0.5
Nc1nc(N)c2c(ccc3c2ccn3Cc2nc3ccc(C(=O)O)cc3s2)n1	8
Nc1nc(N)c2c(ccc3c2ccn3Cc2ccc3sccc3c2)n1	0.06
COC(=O)c1ccc2nc(Cn3ccc4c5c(N)nc(N)nc5ccc43)sc2c1	4
Nc1nc(N)c2c(ccc3c2ccn3Cc2cccc3scnc23)n1	0.008
Nc1nc(N)c2c(ccc3c2ccn3Cc2ccc3ocnc3c2)n1	8
Nc1nc(N)c2c(ccc3c2ccn3Cc2ccc3cc(C(=O)O)ccc3c2)n1	0.004
Nc1nc(N)c2c(ccc3c2ccn3Cc2cccc3cccnc23)n1	0.25
Nc1nc(N)c2c(ccc3c2ccn3Cc2nc3ccccc3o2)n1	0.5
Nc1nc(N)c2c(ccc3c2ccn3Cc2ccc3ccccc3n2)n1	0.06
Nc1nc(N)c2c(ccc3c2ccn3Cc2ccc3ncsc3c2)n1	0.25
Nc1nc(N)c2c(ccc3c2ccn3Cc2cccc3sc(N)nc23)n1	0.25
Nc1nc(N)c2c(ccc3c2ccn3Cc2cc3ccccc3s2)n1	0.125
Nc1nc(N)c2c(ccc3c2ccn3Cc2ccc3ccccc3c2)n1	0.5
Cc1cc2c3c(N)nc(N)nc3ccc2n1Cc1ccc(-c2ccccc2)cc1	4
Nc1nc(N)c2c(ccc3c2ccn3Cc2cc3ccccc3o2)n1	0.25
Nc1nc(N)c2c(ccc3c2ccn3Cc2ccc(B(O)O)c3ccccc23)n1	0.25
Nc1nc(N)c2c(ccc3c2ccn3Cc2ccc3cc(C(=O)O)ccc3n2)n1	32
COc1cc(Cc2cnc(N)nc2N)cc(OC)c1OC	1
Nc1nc(N)c2c(ccc3c2ccn3Cc2nc3ccccc3s2)n1	0.06
Nc1nc(N)c2c(ccc3c2ccn3Cc2ccc3nc(N)sc3c2)n1	2
COC(=O)c1ccc2nc(Cn3ccc4c5c(N)nc(N)nc5ccc43)ccc2c1	0.5
